These measurements were taken from patent US7790896B2.

# System: RNA (Type VI from torula yeast)
# assayNotes: In vitro solution assay (primary screening): fluorescent emission fold change upon binding to RNA
# condition: dye 10 μM, RNA 500 μg/mL in TE buffer
compounds and their reported Ex(nm)

# compound, assaySystem, valueUnit, Ex(nm)
records = [
    ("CCN(CC)c1ccc(/C=C/c2cccc[n+]2C)c(C#N)c1 [Dye B132]", "RNA (Type VI from torula yeast)", "nm", 500),
    ("Cc1cccc(/C=C/c2ccc(N(C)CCC#N)cc2)[n+]1C [Dye C9]", "RNA (Type VI from torula yeast)", "nm", 500),
    ("COc1cc(OC)c(OC)cc1/C=C/c1cc[n+](C)cc1 [Dye A8]", "RNA (Type VI from torula yeast)", "nm", 450),
    ("CN(C)c1ccc(C=Cc2cc[n+](C)cc2)c2ccccc12 [Dye A24]", "RNA (Type VI from torula yeast)", "nm", 500),
    ("CCN(CC)c1ccc(C=Cc2ccc3cc(OC)ccc3[n+]2C)c(C#N)c1 [Dye F132]", "RNA (Type VI from torula yeast)", "nm", 500),
]
